Recorded values, source PubChem BioAssay AID1159580.

Test: chemical genetic growth profiling, strain panel (AID 1159580);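 also: tested at 20 µM; growth read once vehicle control cultures reached saturation at 30 °C; lower values mean less growth of the strain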
Details: S. cerevisiae deletion strains, growth OD, locus YNL322C, strain KRE1
Out of some 5,500 compounds screened, about 2,000 (36%) were called active. Inconclusive results (about 18%) are left out. Rule as the data show it: active = normalized growth mostly below about 0.91 (no sharp cut-off); inconclusive = no clear call, values can overlap the other calls; inactive = mostly above about 0.92. This is one part of the list.
Respond using exactly one of the listed classes: active, inactive

A selection of reference data follows.
COc1cc2c(cc1C(F)(F)F)N(C(=O)Nc1cc(F)cc(-c3cccnc3)c1)CC2 | inactive
C[C@@]12C(=O)OC(=O)[C@]1(C)C1CCC2O1 | active
Cc1onc(-c2ccccc2Cl)c1C(=O)Nc1ccc(S(=O)(=O)Nc2nccs2)cc1 | inactive
COc1cc(C(=O)O)c(O)c2c1OCO2 | inactive
Cc1ccc(-n2nc(-c3ccc(OC(F)(F)F)cc3)cc2NC(=O)Nc2ccc(OC(F)(F)F)cc2)cc1C | inactive

In: Short answer needed: outcome of this test for O=c1[nH]cnc2ccc(Br)cc12 ?
Out: inactive

In: Could you kindly confirm the outcome this assay logged for CCCN1CC[C@@H]2c3cc(O)ccc3CC[C@@H]21 ?
Out: inactive

In: // return assay outcome for CC(N)=NCCCC[C@@H](N)C(=O)O
Out: inactive

In: I would be grateful if you could indicate the recorded call for O=C(Nc1ccc(Cl)cc1Cl)c1cnccn1 .
Out: inactive

In: Would you mind telling me which call this test gave CCOC(=O)CC(=O)Nc1scc(C)c1C(=O)OCC ?
Out: inactive

In: Write down the call the test reported for this molecule. Item: CN(Cc1cc(Br)cc(Br)c1N)C1CCCCC1
Out: inactive

In: # fetch the recorded call for O=C(O)CC(CC(=O)O)c1ccc(C(F)(F)F)cc1 here
Out: inactive

In: Outcome logged for COc1ccccc1N1CCN(Cc2ccc(F)cc2)CC1 in this assay:
Out: inactive

In: Recorded call for CC(=O)OC/C=C(C)/C=C/C=C(C)/C=C/C1=C(C)CCCC1(C)C ?
Out: inactive

In: Field: outcome | Entry: COc1ccc(-c2cc(C(F)F)nn2-c2ccc(S(N)(=O)=O)cc2)cc1F
Out: inactive

In: Check the results log: what was the call for CN1CCc2cc(O)cc3c2[C@H]1Cc1ccc(O)c(O)c1-3 ?
Out: active

In: # fetch the recorded call for COc1cc2c(cc1O)CC1c3c(cc(O)c(OC)c3-2)CCN1C (configuration not stated) here
Out: inactive

In: Per the records of this test, what outcome belongs to CC12CCCC(O)(C1)C1CC(C)(C)C1CC2 (configuration not stated) ?
Out: inactive

In: Which result was noted for this molecule in the test: COc1ccc2c(c1O)-c1c(OC)c(OC)cc3c1[C@H](C2)N(C)CC3
Out: inactive

In: How did this test come out for Nc1c(Br)cc(Br)cc1CNC1CCC(O)CC1 (configuration not stated) ?
Out: inactive

In: Answer briefly: the call reported for Cc1ccc(Cl)cc1NC(=S)NCCO in this assay.
Out: inactive

In: In this assay, the call recorded for CC/C(=N/Oc1ccc(C(F)(F)F)cn1)c1ccc(-c2ccccc2F)cc1 was what?
Out: inactive

In: What outcome does the record of this test show for COc1ccc(/C=C/C(=O)O)cc1OC ?
Out: inactive

In: // return assay outcome for COc1ccccc1N1CCN(CCCNc2c(C)c(=O)n(C)c(=O)n2C)CC1
Out: inactive

In: Recorded call for COC(=O)c1ccc(S(=O)(=O)NCc2ccccc2)n1C ?
Out: inactive

In: // param item: CC(C)c1nc2ccccc2[nH]1 ; yields the recorded call
Out: inactive

In: Recorded test call requested for CCCCC(CC)CN=C(N)NC(N)=NCCCCCCN=C(N)NC(N)=NCC(CC)CCCC (configuration not stated)
Out: active

In: What did the test return for CSc1nc2ccc(NC(=O)c3c(-c4ccccc4)noc3C)cc2s1 ?
Out: inactive

In: # outcome recorded in this test, key = COC(=O)c1cc(OC)c(OC)cc1NS(=O)(=O)c1ccc(C)cc1
Out: inactive

In: Kindly provide the recorded test outcome for the following molecule: COc1cc(/C=C/C(=O)O)cc(OC)c1OC
Out: inactive

In: I would be grateful if you could indicate the recorded call for COc1cc(/C=C/C(=O)O)ccc1O .
Out: inactive

In: Name the outcome recorded for COP(=S)(OC)Oc1ccc(SC)c(C)c1 in the assay.
Out: inactive
